Assay: Secondary Assay for General miRNAs Modulators and/or Inhibitors/Activators of miR-21: miR-30 Firefly Luciferase Assay for second round cherrypicks
Settings: HeLa miR-30 FLuc reporter, luminescence, 48 h; series mostly up to 38.3 µM
Records with an inconclusive call do not appear. Activity calls are given as the source filed them. Calls follow the shape of the dose curve; as a rule, active = well fitted inhibition curve with a large enough effect; inconclusive = small, poorly fitted or top-dose-only effect; inactive = flat fitted curve, though single readings scatter.
Respond with a class label; see True (active), False (inactive)

Cc1ccc(-n2ncc3c(Nc4ccc5c(c4)OCCO5)ncnc32)cc1Cl | True
Cc1ccc(C(=O)Nc2ccc3c(c2)ncn3C)cc1 | True
CC(=O)c1ccc(Oc2ncnc3c2oc2ccccc23)cc1 | True

Query: Name the outcome recorded for `CCOC(=O)c1cccc(NC(=O)c2cc(CN3CCCC3)on2)c1` in the assay.
Result: True

Query: Name the outcome recorded for CC(C)(C)C1CCc2nc(NC(=O)Cc3ccc(Cl)cc3)sc2C1 (stereo not drawn) in the assay.
Result: False

Query: Name the outcome recorded for `Cc1ccccc1NC(=O)c1cc2c([nH]c1=O)CC(C)(C)CC2=O` in the assay.
Result: True

Query: Name the outcome recorded for CCC(C)NC(=O)CCCn1c(=O)c2cccn2c2ccccc21 (stereo not drawn) in the assay.
Result: False
